// reported GI50 for each item listed
- Test system: NCI-H226 lung
- METHOD: NCI tumour cell line growth inhibition, 48 h
MEASURED PARAMETER: GI50

COMPOUND	MEASURED PARAMETER	DATA VALUE
O=c1oc2ccc(I)cc2c(=O)n1-c1ccc(I)cc1F	GI50	1.47 µM
O=C(Nc1cccc(-n2ccc3c(NC(=O)c4ccccc4)nccc32)c1)c1ccc(Cl)c(Cl)c1	GI50	0.568 µM
Cc1cc2oc(=O)cc(OC/C=C3/CCC(=O)O3)c2cc1C	GI50	10.8 µM
COc1cc(Cn2c3ccccc3c3cc(C)cc(OC)c32)cc2c1[nH]c1ccccc12	GI50	17 µM
COC1/C=C/OC2(C)Oc3c(C)c(O)c4c(O)c(c(/C=N/N(c5ccccc5)c5ccccc5)c(O)c4c3C2=O)NC(=O)C(C)=C/C=C/C(C)C(O)C(C)C(O)C(C)C(OC(C)=O)C1C (stereo not given)	GI50	4.23 µM

====

- Test system: UO-31 renal
- METHOD: NCI tumour cell line growth inhibition, 48 h
Item-by-item account of TGI

MOLECULE	TGI
CN(CCc1ccccn1)/[N+]([O-])=N/O (tested in a mixture with another compound)	> 100 µM
C/C(CC(=O)Nc1cccc([N+](=O)[O-])c1)=N/NC(N)=S	> 100 µM
CCN(CC)CCCNC(=O)c1ccccc1Nc1c(Cl)cccc1Cl	20.3 µM
O=C(C(=O)c1cccnc1)c1cccnc1	> 100 µM
COc1cc2c(cc1OC)-c1c(c3ccc([N+](=O)[O-])cc3c(=O)n1CCCN=[N+]=[N-])C2=O	> 100 µM

====

- System: HCT-15 colon
- METHOD: NCI tumour cell line growth inhibition, 48 h; in the data active = GI50 below about 0.43 µM; inactive = the rest
Labels: active, inactive

COMPOUND	CLASS ASSIGNMENT
CN(CCCCCCCCNc1ccnc2ccccc12)Cc1ccc(-c2ccc(-c3ccc(C#N)cc3)s2)cc1	active
O=C1/C=C/[C@@H](O)[C@@H]2C[C@@H](O)C[C@H]2/C=C/CCC[C@H](CCc2ccc(NC(=S)Nc3ccc4c(c3)C(=O)OC43c4ccc(O)cc4Oc4cc(O)ccc43)cc2)O1	inactive
CCCCCCCCCCCCSC1=CC(=O)C=CC1=O	inactive
O=C(C(=O)c1cccnc1)c1cccnc1	inactive
C#Cc1cccc(Nc2ncnc3ccc(-c4cnc(N)nc4)cc23)c1	inactive
Cc1c(C(=O)/C=C/c2ccc(Cl)cc2)nnn1-c1ccnc2c(C(F)(F)F)cccc12	inactive
COC1/C=C/OC2(C)Oc3c(C)c(O)c4c(O)c(c(/C=N/N(c5ccccc5)c5ccccc5)c(O)c4c3C2=O)NC(=O)C(C)=C/C=C/C(C)C(O)C(C)C(O)C(C)C(OC(C)=O)C1C (stereo not drawn)	inactive
O=C(CS(=O)c1nc2ccccc2nc1-c1ccccc1)Nc1ccc(Cl)cc1 (stereo not drawn)	inactive

====

- Test system: CAKI-1 renal
- METHOD: NCI tumour cell line growth inhibition, 48 h; in the data active = GI50 below about 0.43 µM; inactive = the rest
Outcomes: active, inactive

COMPOUND	CLASS ASSIGNMENT
CCc1c2c(nc3ccc(OC(=O)OCc4ccc(B5OC(C)(C)C(C)(C)O5)cc4)cc13)-c1cc3c(c(=O)n1C2)COC(=O)[C@]3(O)CC	active
Cc1ccc2c(c1)C(=O)/C(=C/c1cccc(OCC(=O)c3ccc(Cl)cc3)c1)CS2	inactive
C#Cc1cccc(Nc2ncnc3ccc(-c4cnc(N)nc4)cc23)c1	inactive
CCCCNP1(NCCCC)=NP(NCCCC)(NCCCC)=NP(NCCCC)(NCCCC)=NP(NCCCC)(NCCCC)=N1	inactive
CCN(CC)CCOc1ccc(NC(=O)C(C(C)C)N2C(=O)/C(=C/c3ccc(Br)cc3)SC2=S)cc1 (stereo not given)	inactive
O=C1NC(c2cccc3ccccc23)Nc2ccccc21 (stereo not given)	active
Cl.[O-]c1cccc2cccnc12.[O-]c1cccc2cccnc12.[O-]c1cccc2cccnc12.[O-]c1cccc2cccnc12.[Ti+4]	inactive
O=C(CS(=O)c1nc2ccccc2nc1-c1ccccc1)Nc1ccc(Cl)cc1 (stereo not given)	inactive
N#Cc1ccc(O)c(C2=NCC(c3ccc(-c4ccccc4)cc3)O2)c1 (stereo not given)	active
CN(C)c1ccc2cc3c(cc2c1)Oc1ccccc1N3.[Cl][Zn][Cl]	inactive
